Value source: patent US20250270315A1

# koff annotations
# systemTested: Human SIRPα v2 (antigen of the Octet and Biacore affinity measurements) (human) (UniProt P78324)
# testMethodNotes: SPR (Biacore), 1:1 binding model
Numeric answer only, unit s⁻¹ assumed.

(Q) Param item = hu025.023 (antibody, V domains shown) VH: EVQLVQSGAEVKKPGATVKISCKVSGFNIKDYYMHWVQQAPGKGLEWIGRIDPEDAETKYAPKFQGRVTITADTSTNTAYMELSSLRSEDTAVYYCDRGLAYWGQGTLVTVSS VL: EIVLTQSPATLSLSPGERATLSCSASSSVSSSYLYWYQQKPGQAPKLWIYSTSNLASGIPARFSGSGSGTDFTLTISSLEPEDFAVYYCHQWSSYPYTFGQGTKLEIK ; retrieve measured koff.
(A) 0.00492

Further cases:
(Q) If you can, please state the reported koff value of hu025.059 (antibody, V domains shown) VH: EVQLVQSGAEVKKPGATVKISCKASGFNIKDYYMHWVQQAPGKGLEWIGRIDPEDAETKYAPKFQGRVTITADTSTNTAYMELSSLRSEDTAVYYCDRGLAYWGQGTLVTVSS VL: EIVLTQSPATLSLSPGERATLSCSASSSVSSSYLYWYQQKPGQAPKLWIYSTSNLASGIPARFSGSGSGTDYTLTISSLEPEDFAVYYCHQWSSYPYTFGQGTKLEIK .
(A) 0.00392
